Cited source: ChEMBL document CHEMBL4513146

tested on: Cryptococcus neoformans; details: Concentration 32 ug.mL-1; ASSAY_TEST Inhibition of Fungal Growth; detection method Resazurin; Absorption (OD600-OD570); plate type 384well; NBS; CORNING #3640
Description: Antifungal activity against Cryptococcus neoformans H99 ATCC 208821 (CO-ADD:FG_002); MIC in YNB media using NBS plates, by Resazurin OD(600-570)
Results with a measured potency or affinity are listed apart.
Classify: YES when Inhibition is strictly less than -20%; NO when Inhibition is not.

- Cc1cccc(NC(=O)Cn2nc3ccc(-c4ccccc4)nn3c2=O)c1: NO
- Cc1ccc(Sc2nccn3c(=O)n(CC(=O)Nc4cccc(Br)c4)nc23)c(C)c1: NO
- COc1cccc(Oc2nccn3c(=O)n(CC(=O)NCc4ccccc4Cl)nc23)c1: NO
- CC(C)(C)NC(=O)Cn1nc2n(Cc3ccco3)c(=O)c3sccc3n2c1=O: NO
- O=C(CSc1nnc2c(=O)n(-c3cccc(F)c3)ccn12)c1ccc(F)cc1: NO
- Cc1cc(C)cc(NC(=O)Cn2nc3n(C)c(=O)c4c(c(-c5ccccc5)cn4C)n3c2=O)c1: NO
- COc1cccc(-n2ccn3c(SCc4cccc(Cl)c4)nnc3c2=O)c1: NO
- Cc1cc2nn(CC(=O)Nc3ccc(Cl)cc3)c(=O)n2c(Nc2ccc(F)c(C)c2)n1: NO
- CCOc1ccc(C(=O)CSc2nnc3c(=O)n(-c4ccc(F)cc4)ccn23)cc1: NO
- CC(C)Sc1ccc2nn(CC(=O)Nc3ccccc3F)c(=O)n2n1: NO
- CC(C)c1nnc2c(=O)n(CC(=O)Nc3ccc(Br)cc3F)c3ccccc3n12: NO
- Cc1ccc(Cl)cc1NC(=O)CSc1nnc2n(CC3CCCO3)c(=O)c3sccc3n12 (stereo not given): NO
- CCOC(=O)c1ccc(NC(=O)Cn2nc3ccc(Sc4cccc(F)c4)nn3c2=O)cc1: NO
- Cc1ccccc1N1CCN(c2nccn3c(=O)n(CC(=O)NCc4ccc(Cl)cc4)nc23)CC1: NO
- Cc1ccc(CNC(=O)c2ccc3nn(CC(=O)Nc4ccc(C(F)(F)F)cc4)c(=O)n3c2)cc1: NO
- CN(Cc1ccccc1)C(=O)CSc1nnc2c3cc(-c4ccccc4)nn3ccn12: NO
- CCCn1c(=O)c2sccc2n2c(=O)n(CC(=O)c3cc(C)ccc3C)nc12: YES
- Cc1ccc(NC(=O)Cn2nc3c(Oc4ccccc4Cl)nccn3c2=O)cc1F: NO
- C=Cc1ccc(CN(c2ccc(C(C)C)cc2)S(=O)(=O)c2cccn3c(C)nnc23)cc1: NO
- Cc1nnc2c(=O)n(CC(=O)Nc3cccc(Cl)c3)c3ccccc3n12: NO
- COc1ccc(-c2cc3c4nn(CC(=O)Nc5cc(C)ccc5OC)c(=O)n4ccn3n2)cc1: NO
- CCc1ccccc1NC(=O)Cn1c(=O)c2nnc(C(C)C)n2c2ccccc21: NO
- Cc1ccc(Cl)cc1NC(=O)Cn1nc2c(SC3CCCCC3)nccn2c1=O: YES
- COc1ccc(CNC(=O)Cn2nc3c4cc(-c5ccc(Cl)cc5)nn4ccn3c2=O)cc1: YES
- CCOC(=O)c1ccccc1NC(=O)Cn1nc2c(Oc3cccc(OC)c3)nccn2c1=O: NO
- CCCCN(C)C(=O)CSc1nnc2c(=O)n(Cc3ccc(F)cc3)ccn12: YES
- Cc1nnc2c(=O)n(CC(=O)Nc3ccc(Br)cc3)c3ccccc3n12: NO
- Cc1cc(C)c(NC(=O)Cn2nc3ccc(Sc4cccc(F)c4)nn3c2=O)c(C)c1: NO
- Cc1cc2nn(CC(=O)Nc3ccc4c(c3)OCCO4)c(=O)n2c(Nc2ccccc2C)n1: NO
- O=C(CSc1nnc2n(CC3CCCO3)c(=O)c3sccc3n12)Nc1ccc(F)cc1Cl (stereo not given): YES
- CC(C)Cn1c(=O)c2sccc2n2c(=O)n(Cc3ccccc3Cl)nc12: YES
- Cc1ccc(-c2ccc3nn(Cc4nc(-c5ccc(Cl)cc5)no4)c(=O)n3n2)cc1: NO
- COc1ccc(-c2cc3c4nn(CC(=O)Nc5ccc(F)cc5)c(=O)n4ccn3n2)cc1: NO
- COc1ccc(NC(=O)Cn2nc3c(N4CCCC4)nccn3c2=O)cc1: NO
- CCCN(C)c1nccn2c(=O)n(CC(=O)Nc3cccc(Cl)c3F)nc12: NO
- CCOc1ccc(NC(=O)Cn2nc3c(Sc4cccc(F)c4)nccn3c2=O)cc1: NO
- Cc1c(Cl)cccc1-n1ccn2c(SCC(=O)c3c[nH]c4ccccc34)nnc2c1=O: NO
- COc1cccc(Sc2nc3ccccc3n3c(=O)n(CC(=O)Nc4ccc(Cl)cc4)nc23)c1: YES
- O=C(Cn1nc2c3sc(N4CCCC4)nc3ncn2c1=O)Nc1ccccc1Br: NO
